STUDY_SYSTEM: NCEH1 (Homo sapiens, UniProt Q6PIU2)
Sequence (Q6PIU2 whole entry): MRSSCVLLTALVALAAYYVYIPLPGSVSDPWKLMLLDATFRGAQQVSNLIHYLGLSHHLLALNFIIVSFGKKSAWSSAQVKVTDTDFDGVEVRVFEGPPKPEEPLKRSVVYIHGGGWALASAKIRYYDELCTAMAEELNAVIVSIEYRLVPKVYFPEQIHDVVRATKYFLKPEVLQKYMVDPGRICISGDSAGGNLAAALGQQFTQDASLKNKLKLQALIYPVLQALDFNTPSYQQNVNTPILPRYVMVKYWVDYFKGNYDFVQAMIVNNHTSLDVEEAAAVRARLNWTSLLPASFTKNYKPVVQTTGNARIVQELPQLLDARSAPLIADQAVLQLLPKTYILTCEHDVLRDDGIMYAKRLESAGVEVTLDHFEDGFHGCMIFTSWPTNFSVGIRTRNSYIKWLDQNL
EXPERIMENT_SUMMARY: sADPL in situ target engagement in cancer cells, NCEH1
Type: cell-based
Parameters: endogenous NCEH1 activity in SKOV3 cells; endogenous in cells; host or cells: SKOV3; wild-type PC3; PAFAH2-expressing PC3
RECORDED_CONDITIONS: cancer cells treated in situ, inhibitor prior to family-wide probe; read-out: apparent IC50, dose-dependent inhibition of NCEH1 by sADPL
MEASURED_PROPERTY: pIC50
To interpret pIC50, take it as minus log10 of a concentration measured in moles per litre.

INPUT: State the recorded pIC50 for this entry: `CC(C)c1ccccc1OC(=O)NCCc1ccc2ccccc2c1`
OUTPUT: 7.75
